System Name: HLA-A*26:01
Assay Name: IEDB peptide-MHC binding, purified MHC/competitive/radioactivity; filed as Kd, often an IC50 or EC50 that approximates it; bounds were set here for any values at or beyond the usual limits of such assays
Conditions: source organism: Mammarenavirus choriomeningitidis
Assay Metric: Kd

Given `PDLKTIHNIL` , state its recorded Kd.
≥ 69.7 µM

###

System Name: HLA-A*03:19
Assay Name: IEDB peptide-MHC binding, purified MHC/competitive/fluorescence; filed as Kd, often an IC50 or EC50 that approximates it; bounds were set here for any values at or beyond the usual limits of such assays
Conditions: source organism: Yersinia pestis Nepal516
Assay Metric: pKd
The read-out pKd is expressed as -log10 of concentration in moles per litre.

Returns the measured pKd for the input sequence. Input: `TVYPKTHYV`
6.70

###

System Name: HLA-A*03:01
Assay Name: IEDB peptide-MHC binding, purified MHC/direct/fluorescence; filed as Kd, often an IC50 or EC50 that approximates it; bounds were set here for any values at or beyond the usual limits of such assays
Conditions: source organism: Vibrio cholerae V52
Assay Metric: Kd

Checklist item: Kd tested on HLA-A*03:01, entry `LPYPVLLKI` , value?
≥ 20 µM

###

System Name: HLA-B*40:01
Assay Name: IEDB peptide-MHC binding, purified MHC/direct/fluorescence; filed as Kd, often an IC50 or EC50 that approximates it; bounds were set here for any values at or beyond the usual limits of such assays
Conditions: source organism: Enterobacter cloacae
Assay Metric: pKd
# pKd is unitless: minus log10 of the molar concentration; print number only

Recorded pKd of `AFGLFWLVW` , please.
4.98

###

System Name: HLA-B*35:01
Assay Name: IEDB peptide-MHC binding, purified MHC/competitive/fluorescence; filed as Kd, often an IC50 or EC50 that approximates it; bounds were set here for any values at or beyond the usual limits of such assays
Conditions: source organism: Vaccinia virus Tian Tan
Assay Metric: Kd (nM)
Provide the reading as a plain figure in nM.

Need Kd of `WQFAIHYSF` , thanks.
922

###

Known Kd of a selection of sequences
System Name: HLA-B*40:01
Assay Name: IEDB peptide-MHC binding, purified MHC/direct/fluorescence; filed as Kd, often an IC50 or EC50 that approximates it; bounds were set here for any values at or beyond the usual limits of such assays
Conditions: source organism: Vibrio cholerae
The reply should contain only the number, in nM.

Recorded Kd of `AEIDRSFKP` , please.
1510

More entries:
Given the entry `GEHWLGRIW` , report its measured Kd.
858

###

System Name: HLA-A*33:01
Assay Name: IEDB peptide-MHC binding, purified MHC/competitive/radioactivity; filed as Kd, often an IC50 or EC50 that approximates it; bounds were set here for any values at or beyond the usual limits of such assays
Conditions: source organism: Hepacivirus hominis
Assay Metric: Kd

Using the record for `HSKKKCDDL` , report its Kd.
≥ 77.7 µM

###

System Name: HLA-B*18:01
Assay Name: IEDB peptide-MHC binding, purified MHC/direct/fluorescence; filed as Kd, often an IC50 or EC50 that approximates it; bounds were set here for any values at or beyond the usual limits of such assays
Conditions: source organism: Camelpox virus M-96
Assay Metric: Kd

I am curious: what Kd value has been reported for `SHEQGDIAL` ?
≥ 20 µM

###

Here the recorded pKd is given for each entry.
System Name: HLA-A*23:01
Assay Name: IEDB peptide-MHC binding, purified MHC/competitive/radioactivity; filed as Kd, often an IC50 or EC50 that approximates it; bounds were set here for any values at or beyond the usual limits of such assays
Conditions: source organism: Dengue virus 1 Brazil/97-11/1997
The scale used: pKd is minus the common logarithm of the concentration in molar units.

What value of pKd has been reported for the following sequence? `WHLGKLELDF`
6.53

Others:
Given `VFKKRNLTI` , state its recorded pKd.
6.70
